Quick reference for log10(IC50) among some compounds
biological target: human neutrophil elastase (HNE) (Homo sapiens); construct: purchased SERVA Electrophoresis GmbH, Heidelberg, Germany #20927.01; experiment: In vitro inhibition of HNE using a fluorogenic peptide substrate (Example I-A); type: biochemical; conditions: fluorogenic peptide substrate MeOSuc-Ala-Ala-Pro-Val-AMC, 384 MTP assay format
Sequence (P08246 30-267): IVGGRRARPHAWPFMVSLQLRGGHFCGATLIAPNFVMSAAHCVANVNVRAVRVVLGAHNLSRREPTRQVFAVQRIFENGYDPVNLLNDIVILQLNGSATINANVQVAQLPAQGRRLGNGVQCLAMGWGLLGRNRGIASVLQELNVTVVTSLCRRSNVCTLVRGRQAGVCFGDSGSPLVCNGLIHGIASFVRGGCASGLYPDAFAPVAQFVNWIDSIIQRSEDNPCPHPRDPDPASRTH
reported.endpoint: log10(IC50) (log10 of the value in nM)

| compound | endpoint.value |
| --- | --- |
| CC1=C(C(=O)C2CCCCC2)C(c2ccc(C#N)cc2)NC(=O)N1c1cccc(C(F)(F)F)c1 (stereo not drawn) | 2.11 |
| CC1=C(C(=O)NS(=O)(=O)c2ccc(C#N)cc2)C(c2ccc(C#N)cc2)NC(=O)N1c1cccc(C(F)(F)F)c1 (stereo not drawn) | 3.00 |
| COC(=O)c1coc(CN2C(=O)N(c3cccc(C(F)(F)F)c3)C(C)=C(C(=O)C3CC3)C2c2ccc(C#N)cc2)n1 (stereo not drawn) | 1.36 |
| CC1=C(C(=O)NS(=O)(=O)CC(F)(F)F)C(c2ccc(C#N)cc2)N(CC(=O)OC(C)(C)C)C(=O)N1c1cccc(C(F)(F)F)c1 (stereo not drawn) | 1.70 |
| CC1=C(CO)C(c2ccc(C#N)cc2)NC(=O)N1c1cccc(C(F)(F)F)c1 (stereo not drawn) | 1.30 |
| CC1=C(CCC(=O)O)C(c2ccc(C#N)cc2)NC(=O)N1c1cccc(C(F)(F)F)c1 (stereo not drawn) | 1.70 |
| CC1=C(C(=O)NCc2ccccc2F)C(c2ccc(C#N)cc2)NC(=O)N1c1cccc(C(F)(F)F)c1 (stereo not drawn) | 3.00 |
| CC1=C(C(=O)C2CC2)C(c2ccc(C#N)cc2)N(CC(=O)NS(=O)(=O)CC(F)(F)F)C(=O)N1c1cccc(C(F)(F)F)c1 (stereo not drawn) | 1.30 |
| CC1=C(C(=O)NC2CC2)C(c2ccc(C#N)cc2)NC(=O)N1c1cccc(C(F)(F)F)c1 (stereo not drawn) | 2.30 |
